biological target: HCV NS3-4A protease (Hepatitis C virus genotype 1a, UniProt P27958); construct: HCV NS3-4A protease; test: HCV NS3-4A protease assay in vitro (FRET-S substrate); assay type: biochemical; settings: HCV NS3-4A protease inhibition, 37° C., class symbols; read-out: NS3-NS4A IC50
Sequence (P27958 1027-1657): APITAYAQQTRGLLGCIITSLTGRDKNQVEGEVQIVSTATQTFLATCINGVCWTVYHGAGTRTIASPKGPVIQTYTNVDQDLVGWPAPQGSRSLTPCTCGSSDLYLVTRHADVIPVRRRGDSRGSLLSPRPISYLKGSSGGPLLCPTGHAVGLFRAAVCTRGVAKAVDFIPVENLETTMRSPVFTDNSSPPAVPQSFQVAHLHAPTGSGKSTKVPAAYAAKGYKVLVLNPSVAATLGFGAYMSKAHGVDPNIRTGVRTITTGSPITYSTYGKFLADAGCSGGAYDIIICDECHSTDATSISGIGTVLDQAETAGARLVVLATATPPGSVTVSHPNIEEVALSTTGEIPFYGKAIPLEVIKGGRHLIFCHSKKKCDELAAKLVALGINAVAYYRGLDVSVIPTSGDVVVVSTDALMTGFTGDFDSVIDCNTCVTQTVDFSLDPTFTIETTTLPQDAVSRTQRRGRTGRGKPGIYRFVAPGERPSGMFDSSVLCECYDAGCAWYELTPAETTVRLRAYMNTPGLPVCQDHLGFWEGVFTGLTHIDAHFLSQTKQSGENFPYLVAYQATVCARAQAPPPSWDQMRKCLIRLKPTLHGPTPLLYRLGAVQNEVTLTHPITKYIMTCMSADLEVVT
Sequence (P27958 1658-1711): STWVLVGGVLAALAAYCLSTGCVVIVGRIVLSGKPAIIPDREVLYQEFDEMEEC
measured-quantity: IC50

A selection of reference data follows.
Any idea what its IC50 is? The compound is CC(C)S(=O)(=O)NC(=O)[C@@]12C[C@H]1/C=C\CCCCC[C@H](NC(=O)OC(C)(C)C)C(=O)N1C[C@H](OC(=O)N3Cc4ccc5c(c4C3)OCO5)C[C@H]1C(=O)N2 [Compound 12e]
< 0.03 µM

Entry to check: CN1CCCCC/C=C\[C@@H]2C[C@@]2(C(=O)NS(=O)(=O)C2CC2)NC(=O)[C@@H]2CC(OC(=O)N3Cc4cc5c(cc4C3)OCCO5)CN2C1=O (stereo partly shown) [Compound 27b]
0.03 to 0.2 µM

Entry to check: CC(C)(C)OC(=O)N[C@H]1CCCCC/C=C\[C@@H]2C[C@@]2(C(=O)NS(=O)(=O)C2CC2)NC(=O)[C@@H]2C[C@@H](OC(=O)N3Cc4cccc(F)c4C3)CN2C1=O [Compound 12-Ref, reference compound]
< 0.03 µM

Entry to check: CC(C)(C)OC(=O)N[C@H]1CCCCC/C=C\[C@@H]2C[C@@]2(C(=O)NS(=O)(=O)C2CC2)NC(=O)[C@@H]2C[C@@H](OC(=O)N3Cc4ccc5c(c4C3)OCCO5)CN2C1=O [Compound 12b]
< 0.03 µM

Entry to check: CN1CCCCC/C=C\[C@@H]2C[C@@]2(C(=O)NS(=O)(=O)C2CC2)NC(=O)[C@@H]2CC(OC(=O)N3Cc4cc5c(cc4C3)OCO5)CN2C1=O (stereo partly shown) [Compound 27a]
0.03 to 0.2 µM

Entry to check: O=C1N[C@]2(C(=O)NS(=O)(=O)C3CC3)C[C@H]2/C=C\CCCCN(C2CC2)C(=O)C2C[C@H](OC(=O)N3Cc4cc5c(cc4C3)OCO5)C[C@@H]12 (stereo partly shown) [Compound 21a]
0.03 to 0.2 µM

Others:
Any idea what its IC50 is? The compound is CC[C@H]1C[C@@]1(NC(=O)C1C[C@@H](OC(=O)N2Cc3cc4c(cc3C2)OCO4)CN1C(=O)[C@@H](NC(=O)[C@@H](NS(=O)(=O)c1ccccc1)C1CCCCC1)C(C)(C)C)C(=O)NS(=O)(=O)C1CC1 (stereo partly shown) [Compound 30r]
< 0.03 µM

Entry to check: C=C[C@H]1C[C@@]1(NC(=O)C1C[C@@H](OC(=O)N2Cc3cccc(F)c3C2)CN1C(=O)[C@@H](NC(=O)OC1CCCC1)C(C)(C)C)C(=O)NS(=O)(=O)C1CC1 (stereo partly shown) [Compound 30aq]
< 0.03 µM

Entry to check: CC(C)(C)OC(=O)N[C@H]1CCCCC/C=C\[C@@H]2C[C@@]2(C(=O)O)NC(=O)[C@@H]2C[C@@H](OC(=O)N3Cc4cc5c(cc4C3)OCCO5)CN2C1=O [Compound 11c]
> 0.2 µM

Entry to check: CN1CCCCC/C=C\[C@@H]2C[C@@]2(C(=O)NS(=O)(=O)C2CC2)NC(=O)[C@@H]2CC(OC(=O)N3Cc4cccc(F)c4C3)CN2C1=O (stereo partly shown) [Compound 27-Ref, reference compound]
0.03 to 0.2 µM

---

Each entry below carries its recorded pIC50.
target: HCV NS3-4A protease (Hepatitis C virus genotype 1a); construct: HCV NS3-4A protease; assay: HCV NS3-4A protease assay in vitro (FRET-S substrate); type: biochemical; conditions: HCV NS3-4A protease inhibition, 37° C., class symbols; read-out: NS3-NS4A IC50
pIC50: −log10 of the molar value.

Any idea what its pIC50 is? The molecule is O=C1N[C@]2(C(=O)NS(=O)(=O)C3CC3)C[C@H]2/C=C\CCCCCN(C2CC2)C(=O)C2C[C@H](OC(=O)N3Cc4ccc5c(c4C3)OCO5)C[C@@H]12 (some centres unmarked) [Compound 21d]
6.70 to 7.52

Entry to check: CC(C)S(=O)(=O)NC(=O)[C@@]12C[C@H]1/C=C\CCCCC[C@H](NC(=O)OC(C)(C)C)C(=O)N1C[C@H](OC(=O)N3Cc4cc5c(cc4C3)OCCO5)C[C@H]1C(=O)N2 [Compound 12g]
> 7.52

Entry to check: O=C1N[C@]2(C(=O)NS(=O)(=O)C3CC3)C[C@H]2/C=C\CCCCC[C@H](N2CCCS2(=O)=O)C(=O)N2C[C@H](OC(=O)N3Cc4cc5c(cc4C3)OCCO5)C[C@@H]12 [Compound 12j]
6.70 to 7.52

Entry to check: CC[C@H]1C[C@@]1(NC(=O)C1C[C@@H](OC(=O)N2Cc3cc4c(cc3C2)OCO4)CN1C(=O)[C@@H](NC(=O)[C@@H](NS(C)(=O)=O)C1CCCCC1)C(C)(C)C)C(=O)NS(=O)(=O)C1CC1 (some centres unmarked) [Compound 30n]
> 7.52

Entry to check: C=C[C@H]1C[C@@]1(NC(=O)C1C[C@@H](OC(=O)N2Cc3cc4c(cc3C2)OCO4)CN1C(=O)[C@@H](NC(=O)OC(C)(C)C)C(C)(C)C)C(=O)NS(=O)(=O)C1CC1 (some centres unmarked) [Compound 30af]
> 7.52

Others:
Any idea what its pIC50 is? The molecule is CC[C@H]1C[C@@]1(NC(=O)C1C[C@@H](OC(=O)N(C)Cc2ccc3c(c2)OCO3)CN1C(=O)[C@@H](NC(=O)OC1CCCC1)C(C)(C)C)C(=O)NS(=O)(=O)C1CC1 (some centres unmarked) [Compound 30ap]
> 7.52

Entry to check: C=C[C@H]1C[C@@]1(NC(=O)C1C[C@@H](OC(=O)N2Cc3cc4c(cc3C2)OCO4)CN1C(=O)[C@@H](NC(=O)NC(C)(C)C)C(C)(C)C)C(=O)NS(=O)(=O)C1CC1 (some centres unmarked) [Compound 30ar]
> 7.52

Entry to check: CC(C)OC(=O)N[C@H]1CCCCC/C=C\[C@@H]2C[C@@]2(C(=O)NS(=O)(=O)C2CC2)NC(=O)[C@@H]2C[C@@H](OC(=O)N3Cc4cc5c(cc4C3)OCO5)CN2C1=O [Compound 12q]
> 7.52

Entry to check: CC[C@H]1C[C@@]1(NC(=O)C1C[C@@H](OC(=O)N2Cc3cc4c(cc3C2)OCO4)CN1C(=O)[C@@H](NC(=O)[C@@H](NS(=O)(=O)c1ccc2ccccc2c1)C1CCCCC1)C(C)(C)C)C(=O)NS(=O)(=O)C1CC1 (some centres unmarked) [Compound 30s]
> 7.52

Entry to check: O=C1N[C@]2(C(=O)NS(=O)(=O)C3CC3)C[C@H]2/C=C\CCCCN(C2CC2)C(=O)C2C[C@H](OC(=O)N3Cc4ccc5c(c4C3)OCO5)C[C@@H]12 (some centres unmarked) [Compound 21f]
6.70 to 7.52

Entry to check: CC(C)(C)OC(=O)N[C@H]1CCCCC/C=C\[C@@H]2C[C@@]2(C(=O)NS(=O)(=O)C2CC2)NC(=O)[C@@H]2C[C@@H](OC(=O)N3Cc4cc5c(cc4C3)OCO5)CN2C1=O [Compound 12d]
> 7.52

Entry to check: O=C1N[C@]2(C(=O)NS(=O)(=O)C3CC3)C[C@H]2/C=C\CCCCC[C@H](N2CCCS2(=O)=O)C(=O)N2C[C@H](OC(=O)N3Cc4cc5c(cc4C3)OCO5)C[C@@H]12 [Compound 12k]
> 7.52

Entry to check: C=C[C@H]1C[C@@]1(NC(=O)C1C[C@@H](OC(=O)N2Cc3ccc4c(c3C2)OCO4)CN1C(=O)[C@@H](NC(=O)OC(C)(C)C)C(C)(C)C)C(=O)NS(=O)(=O)C1CC1 (some centres unmarked) [Compound 30ah]
> 7.52

Entry to check: CN1CCCC/C=C\[C@@H]2C[C@@]2(C(=O)NS(=O)(=O)C2CC2)NC(=O)[C@@H]2C[C@@H](OC(=O)N3Cc4cc5c(cc4C3)OCO5)CC2C1=O (some centres unmarked) [Compound 21c]
> 7.52
